The measurements presented in this section are drawn from the supplement of paper PMC10567573.

Task for the reader: assign each of the following variants its reported protein stability index.
B1: FAM50A (parent)
chain: HIFPASRWEPYDPEKKWDKYTIR

Variants of: B1
EXPERIMENT_DESCRIPTION: protein stability index of a GFP-peptide fusion (GPS, HEK-293T) (PSI 1-6); higher = more stable;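 also: lentivirally expressed fusions sorted by FACS into six bins by GFP to DsRed ratio, PSI derived from sequencing read proportions per bin multiplied by bin number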
CONDITION_SUMMARY: c terminus: native
Give bare numbers.

Examples with answers:
variant_identifier=D12C observed=1.89
variant_identifier=P13R observed=2
variant_identifier=R7L observed=1.21
variant_identifier=K15F observed=2.2

Below are some variants; for each one, tell me its protein stability index.
1. F3D
2. T21R

[3.92, 2.38]

Below are some variants; for each one, tell me its protein stability index.
1. W8D
2. W8E
3. S6F
4. D12Q

3.54
3.6
2.92
2.19

Below are some variants; for each one, tell me its protein stability index.
1. P4L
2. I2A
3. P10L
4. I2R
5. E9V

2.56
2.71
1.8
3.2
2.17

Below are some variants; for each one, tell me its protein stability index.
1. D12M
2. W17Y
3. R23L

1: 2.6; 2: 2.29; 3: 2.54

Below are some variants; for each one, tell me its protein stability index.
1. R23Q
2. K19R
3. R7P
4. I22C

2.12
2.6
2.01
2.15
